# Target System: Insulin receptor-related protein (Homo sapiens);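 note: each reported figure is the mean of the IRR inhibition readings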
# Conditions: at 1 µM
Assay Readout: inhibition (%)
// note: answer is a bare numeric in %

Before answering, review these 5 worked examples.
CC1=C(C(=O)Nc2ccc3[nH]ncc3c2)C(c2ccc(F)cc2)N=C(c2ccc(C(F)(F)F)nc2)N1 (stereo not drawn): 1.25
CS(=O)(=O)CCNCc1ccc(-c2ccc3ncnc(Nc4ccc(OCc5ccccc5)cc4)c3c2)o1: 2.07
N#Cc1ccc2c(-c3ccnc(NC4CC4)n3)c(-c3ccc(F)cc3)nn2c1: 0.6
FC(F)(F)CNc1nccc(-c2cnn3ncccc23)n1: 1.1
CC(C)c1ccc(-c2cc(-c3c[nH]nc3-c3ccccn3)ccn2)cc1: -0.37

The compound NS(=O)(=O)c1ccc(N/N=C2\C(=O)Nc3cccc(CCc4ccncc4)c32)cc1 showed inhibition equal to 0.48

Lab note: COc1cc(N2CCN(C(C)C)CC2)ccc1Nc1nc(Nc2cccc3ncccc23)c2cc[nH]c2n1 gave inhibition of 14.8

Field inhibition (entry COc1cc(N2CCN(C(C)C)CC2)ccc1Nc1nc(Nc2cccc(F)c2C(=O)O)c2cc[nH]c2n1 ) reads 82.3

The recorded inhibition for CCOc1ccc2c(-c3ccnc(Nc4cc(OC)cc(C(F)(F)F)c4)n3)cnn2n1 is 0.03

Note to self: inhibition recorded for CC1(C)CC(n2cnc(-c3ccc(F)cc3)c2-c2ccnc(N)n2)CC(C)(C)N1 was -1.13

Cn1c(-c2nonc2N)nc2cnccc21 has a reported inhibition of -0.85

The value of inhibition measured for the compound CCn1c(-c2nonc2N)nc2cncc(C(=O)NCCNC)c21 turned out to be 5.53

Lookup result for N#Cc1cccc(Nc2ncc(-c3ccccc3)o2)c1 ; measured inhibition: -0.06
